biological target: UniProtKB Q5HEB7; assay: D-Ala-D-Ala ligase Ki determination (PK/LDH coupled assay), Staph ligase; format: biochemical; conditions: Table 4; Ki/ATP, avg; read-out: Staph ligase Ki/ATP (uM) avg
endpoint_label: Ki
Include the unit after the number when you answer.

Below, each entry is followed by its recorded Ki result.
{"compound": "CCOc1ccc2ccccc2c1CN(CCC(=O)O)c1ncc2c(N)nc(N)nc2n1", "endpoint_label": "Ki", "endpoint_result": "6.7 µM"}
{"compound": "C[C@@H](c1cccc2ccccc12)N(CCC(=O)O)c1ncc2c(N)nc(N)nc2n1", "endpoint_label": "Ki", "endpoint_result": "10 µM"}
{"compound": "C[C@@H](c1cccc2ccccc12)N(CC(O)C(=O)O)c1ncc2c(N)nc(N)nc2n1 (stereo partly shown)", "endpoint_label": "Ki", "endpoint_result": "4.3 µM"}

### Prompt Form field: reported Ki of C[C@@H](c1cccc2ccccc12)N(C[C@@H](O)C(=O)O)c1ncc2c(N)nc(N)nc2n1 (racemic)
### Response 7.8 µM

* * *

target: Staph ligase (D-Ala-D-Ala ligase) (Staphylococcus aureus); assay: D-Ala-D-Ala ligase Ki determination (PK/LDH coupled assay), Staph ligase; type: biochemical; conditions: Table 5; Ki/ATP, avg; read-out: Staph ligase Ki/ATP (uM) avg
Sequence (Q5HEB7 whole entry): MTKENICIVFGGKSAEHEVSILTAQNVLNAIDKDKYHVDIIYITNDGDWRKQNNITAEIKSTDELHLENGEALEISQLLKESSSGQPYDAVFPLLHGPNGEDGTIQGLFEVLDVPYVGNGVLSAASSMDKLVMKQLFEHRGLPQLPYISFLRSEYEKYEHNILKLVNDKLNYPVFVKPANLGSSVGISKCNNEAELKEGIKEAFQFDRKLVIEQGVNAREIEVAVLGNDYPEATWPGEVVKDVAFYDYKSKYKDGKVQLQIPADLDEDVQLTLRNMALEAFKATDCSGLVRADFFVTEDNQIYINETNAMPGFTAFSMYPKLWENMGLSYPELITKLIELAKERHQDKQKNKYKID
endpoint_label: Ki (µM)
Give the value in µM but do not write µM after it.

### Prompt Form field: reported Ki of CCCN(c1ncc2c(N)nc(N)nc2n1)C(C)c1cccc2ccccc12 (stereo not shown)
### Response 58

### Prompt Also, CCOc1ccc2ccccc2c1CN(CCCCN)c1ncc2c(N)nc(N)nc2n1 please.
### Response 15

### Prompt Also, CC(c1cccc2ccccc12)N(CCCCN)c1ncc2c(N)nc(N)nc2n1 (stereo not shown) [drawing 55] please.
### Response 32

### Prompt Also, CC(c1cccc2ccccc12)N(CCCN)c1ncc2c(N)nc(N)nc2n1 (stereo not shown) please.
### Response 46

* * *

Below is a list of entries, each paired with its recorded Ki value.
Target: Strep ligase (D-Ala-D-Ala ligase) (Streptococcus pneumoniae serotype 4, UniProt P0CB57)
Sequence (P0CB57 whole entry): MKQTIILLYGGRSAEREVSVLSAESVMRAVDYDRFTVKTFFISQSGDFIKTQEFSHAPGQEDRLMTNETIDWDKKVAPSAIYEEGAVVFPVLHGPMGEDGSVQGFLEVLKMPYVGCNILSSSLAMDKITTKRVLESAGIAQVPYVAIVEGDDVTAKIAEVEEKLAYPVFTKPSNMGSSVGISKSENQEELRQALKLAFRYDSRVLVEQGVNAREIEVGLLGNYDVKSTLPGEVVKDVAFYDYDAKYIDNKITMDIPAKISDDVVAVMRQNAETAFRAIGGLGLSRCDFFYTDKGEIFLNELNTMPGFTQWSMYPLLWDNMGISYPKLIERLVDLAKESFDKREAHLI
Experiment: D-Ala-D-Ala ligase Ki determination (PK/LDH coupled assay), Strep ligase
Format: biochemical
Conditions: Table 3; Ki/ATP, avg; read-out: Strep ligase Ki/ATP (uM) avg
Excerpt: Inhibition of D-Ala-D-Ala ligase can be assayed for using the pyruvate kinase/lactate dehydrogenase (PK/LDH) assay described in Example 2, and as described in the literature (e.g., in Sarthy et al., Anal. Biochem., 254:288-290, 1997). […] The protein sequence for the enzyme D-ala-D-ala ligase has been determined in a variety of different bacterial species using standard techniques in biochemistry (see Table 5). […]
Give the value in µM but do not write µM after it.

Below, each entry is followed by its recorded Ki result.
{"smiles_str": "CCOc1ccc2ccccc2c1CN(CCC(=O)NCCN)c1ncc2c(N)nc(N)nc2n1", "tested_system": "Strep ligase (D-Ala-D-Ala ligase) (Streptococcus pneumoniae serotype 4, UniProt P0CB57)", "uom": "µM", "endpoint_result": 1.9}
{"smiles_str": "CCOc1ccc2ccccc2c1CN(CCC(=O)NCc1cccc(CN)c1)c1ncc2c(N)nc(N)nc2n1", "tested_system": "Strep ligase (D-Ala-D-Ala ligase) (Streptococcus pneumoniae serotype 4, UniProt P0CB57)", "uom": "µM", "endpoint_result": 0.9}
{"smiles_str": "CCOc1ccc2ccccc2c1CN(CCC(=O)NCc1ccc(N)cc1)c1ncc2c(N)nc(N)nc2n1", "tested_system": "Strep ligase (D-Ala-D-Ala ligase) (Streptococcus pneumoniae serotype 4, UniProt P0CB57)", "uom": "µM", "endpoint_result": 1.6}
{"smiles_str": "CCOc1ccc2ccccc2c1CN(CCC(=O)NCC(=N)N)c1ncc2c(N)nc(N)nc2n1", "tested_system": "Strep ligase (D-Ala-D-Ala ligase) (Streptococcus pneumoniae serotype 4, UniProt P0CB57)", "uom": "µM", "endpoint_result": 1.4}
{"smiles_str": "CCOc1ccc2ccccc2c1CN(CCC(=O)N1CCOCC1)c1ncc2c(N)nc(N)nc2n1", "tested_system": "Strep ligase (D-Ala-D-Ala ligase) (Streptococcus pneumoniae serotype 4, UniProt P0CB57)", "uom": "µM", "endpoint_result": 4.1}

Consider now this further compound.
### Prompt Form field: reported Ki of CCOc1ccc2ccccc2c1CN(CCC(=O)NCc1ccccn1)c1ncc2c(N)nc(N)nc2n1
### Response 3.1

The values you see were collected from patent US20080090847A1.
